B1: Homeobox protein cut-like 2, residues 895 to 963; numbered along this chain, O14529 (parent)
chain: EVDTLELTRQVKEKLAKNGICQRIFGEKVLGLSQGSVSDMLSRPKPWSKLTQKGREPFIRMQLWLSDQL

# Variants of: B1
# TEST NAME: abundance fitness (aPCA) (normalised: wild type 0, dead -1); higher = more abundant; growth selection in yeast, the domain comes from the species named
# EXPERIMENTAL CONTEXT: Homo sapiens
abundance fitness vs -0.06: at or above is Y, below is N.

Past entries and their recorded results:
* L63T | Y
* V11E | N
* Q22F | N
* G26T | N

[in] Threshold query (abundance fitness >= -0.06) on S42D
[out] Y

[in] Is reported abundance fitness greater than or equal to -0.06 here: V29W
[out] N

[in] Item K12Q with abundance fitness of -0.06 or above?
[out] N
